# Assay target: Serine/threonine-protein kinase SIK3 (Homo sapiens); also: in the data inactive means no Kd found up to 30 µM
# Sequence (Q9Y2K2 whole entry): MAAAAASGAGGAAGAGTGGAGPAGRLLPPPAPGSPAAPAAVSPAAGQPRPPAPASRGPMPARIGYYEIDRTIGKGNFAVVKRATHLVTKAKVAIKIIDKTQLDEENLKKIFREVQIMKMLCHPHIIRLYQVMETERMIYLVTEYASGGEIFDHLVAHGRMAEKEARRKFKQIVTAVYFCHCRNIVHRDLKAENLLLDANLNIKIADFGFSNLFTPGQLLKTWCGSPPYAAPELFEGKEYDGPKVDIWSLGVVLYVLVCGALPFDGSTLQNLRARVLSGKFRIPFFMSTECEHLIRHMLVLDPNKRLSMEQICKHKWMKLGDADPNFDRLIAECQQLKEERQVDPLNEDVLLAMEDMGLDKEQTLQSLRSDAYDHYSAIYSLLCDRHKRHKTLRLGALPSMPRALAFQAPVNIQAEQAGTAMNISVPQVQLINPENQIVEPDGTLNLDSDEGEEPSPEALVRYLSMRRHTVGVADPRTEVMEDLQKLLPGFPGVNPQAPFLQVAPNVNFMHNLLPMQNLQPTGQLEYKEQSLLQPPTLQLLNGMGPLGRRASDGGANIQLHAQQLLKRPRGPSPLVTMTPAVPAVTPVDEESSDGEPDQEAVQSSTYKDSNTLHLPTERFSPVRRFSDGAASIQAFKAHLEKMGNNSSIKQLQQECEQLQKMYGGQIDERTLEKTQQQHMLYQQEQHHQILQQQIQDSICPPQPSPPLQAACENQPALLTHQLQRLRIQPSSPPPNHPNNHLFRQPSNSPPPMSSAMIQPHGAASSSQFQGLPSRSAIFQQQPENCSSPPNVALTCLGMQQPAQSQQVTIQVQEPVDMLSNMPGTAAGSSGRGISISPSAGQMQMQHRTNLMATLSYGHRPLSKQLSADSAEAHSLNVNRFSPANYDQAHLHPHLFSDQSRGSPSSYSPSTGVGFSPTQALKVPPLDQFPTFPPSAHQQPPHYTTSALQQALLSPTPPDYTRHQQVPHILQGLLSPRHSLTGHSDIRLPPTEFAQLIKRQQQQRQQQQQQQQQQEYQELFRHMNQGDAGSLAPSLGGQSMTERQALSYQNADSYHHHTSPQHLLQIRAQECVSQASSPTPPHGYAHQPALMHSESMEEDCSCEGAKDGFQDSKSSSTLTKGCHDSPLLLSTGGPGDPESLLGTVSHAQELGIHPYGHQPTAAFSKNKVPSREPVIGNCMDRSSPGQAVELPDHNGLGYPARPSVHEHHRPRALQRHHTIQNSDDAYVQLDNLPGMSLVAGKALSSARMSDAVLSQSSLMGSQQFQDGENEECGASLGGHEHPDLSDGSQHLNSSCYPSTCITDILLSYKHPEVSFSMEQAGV
Activity calls are given as the source filed them.
Pick one and only one: true (1) for active, false (0) for inactive

Q: Query: recorded result category for N#CCNC(=O)c1ccc(-c2ccnc(Nc3ccc(N4CCOCC4)cc3)n2)cc1 in this test
Ans: true (1)

Q: Given CCc1nc(C(N)=O)c(Nc2ccc(N3CCC(N4CCN(C)CC4)CC3)c(OC)c2)nc1NC1CCOCC1 , state the outcome it received in this test.
Ans: false (0)

Q: Lab log entry: Cn1c(=O)c(F)c(Nc2ccc(I)cc2F)c2c(=O)n(C[C@@H](O)CO)cnc21 — outcome as called in the assay?
Ans: false (0)

Q: Short answer needed: outcome of this test for CC1(COc2ccc3c(c2)ncn3-c2ccc3cccc(N4CCC(N)CC4)c3n2)COC1 ?
Ans: true (1)

Q: What outcome does the record of this test show for CNC(=O)c1cccc(-c2ccc3c(N4CCOC[C@@H]4C)nc(N4CCOC[C@@H]4C)nc3n2)c1 ?
Ans: false (0)

Q: Record request — test call for COc1cccc(Nc2ncnn3ccc(CN4CC[C@@H](N)[C@H](O)C4)c23)c1
Ans: false (0)

Q: How was CNC(=O)c1ccc(Nc2ncc(C(F)(F)F)c(NCc3nccnc3N(C)S(C)(=O)=O)n2)cc1 classified in this test?
Ans: false (0)

Q: How was Cc1cc(-c2cc(OC(=O)c3ccccc3)ccc2Cl)cc2nnc(Nc3ccc(OCCN4CCCC4)cc3)nc12 classified in this test?
Ans: false (0)

Q: Can you look up the reported call for O=S(=O)(c1cccc2c(O)nccc12)N1CCCNCC1 [HYDROXYFASUDIL] for me?
Ans: false (0)

Q: Name the outcome recorded for CCc1cc2c(cc1N1CCC(N3CCOCC3)CC1)C(C)(C)c1[nH]c3cc(C#N)ccc3c1C2=O in the assay.
Ans: false (0)

Q: Outcome? CN1CCN(c2nc(C3=C(c4c[nH]c5ccccc45)C(=O)NC3=O)c3ccccc3n2)CC1
Ans: false (0)

Q: What call does the record list for C=CCn1c(=O)c2cnc(Nc3ccc(N4CCN(C)CC4)cc3)nc2n1-c1cccc(C(C)(C)O)n1 ?
Ans: false (0)

Q: Kindly provide the recorded test outcome for the following molecule: Cc1cc(Nc2nc(N[C@@H](C)c3ncc(F)cn3)ncc2Cl)n[nH]1
Ans: false (0)

Q: Call for entry CCN1CCN(Cc2ccc(Nc3ncc(F)c(-c4cc(F)c5nc(C)n(C(C)C)c5c4)n3)nc2)CC1 :
Ans: false (0)

Q: Kindly provide the recorded test outcome for the following molecule: C=CC(=O)Nc1cc(Nc2nccc(-c3cn(C)c4ccccc34)n2)c(OC)cc1N(C)CCN(C)C
Ans: false (0)

Q: I'd appreciate the recorded outcome for O=C(Nc1ccc(OC(F)(F)F)cc1)c1sccc1NCc1ccnc2ccccc12 from this test.
Ans: false (0)

Q: Could you please tell me the result logged for CNC(=O)c1cc(COc2nnc(Nc3ccc(Cl)cc3)c3ccoc23)ccn1 in this assay?
Ans: false (0)

Q: Called result for O=C(NC[C@H](O)CO)c1ccncc1Nc1ccc(I)cc1F
Ans: false (0)

Q: Kindly provide the recorded test outcome for the following molecule: CC[C@@](C)(Nc1ccnc(-c2c[nH]c3ncccc23)n1)C(=O)NCC(F)(F)F
Ans: false (0)

Q: Recorded test call requested for FC(F)(F)c1ccc(CNc2ccc(Cc3c[nH]c4ncc(Cl)cc34)cn2)cn1
Ans: false (0)

Q: Which outcome was assigned to c1cc(OCCN2CCCCC2)cc(-c2n[nH]c3ccc(-c4nc[nH]n4)cc23)c1 in this test?
Ans: false (0)

Q: I would be grateful if you could indicate the recorded call for CCOc1ccn(-c2ccc(F)cc2)c(=O)c1C(=O)Nc1ccc(Oc2ccnc(N)c2Cl)c(F)c1 .
Ans: false (0)

Q: Hi, do you know how COc1cc2nccc(Oc3ccc(NC(=O)C4(C(=O)Nc5ccc(F)cc5)CC4)cc3)c2cc1OC [CABOZANTINIB] came out in this test?
Ans: false (0)

Q: Please let me know the test result on file for O=C(NOC[C@H](O)CO)c1ccc(F)c(F)c1Nc1ccc(I)cc1F .
Ans: false (0)

Q: For COc1ccc2c(OCc3nnc4ccc(-c5ccccc5)nn34)ccnc2c1 , which call appears in the assay record?
Ans: false (0)

Q: # outcome recorded in this test, key = C[C@@H]1COC(Nc2ccc3ncnc(Nc4ccc(OCc5nccs5)c(Cl)c4)c3c2)=N1
Ans: false (0)

Q: Would you mind telling me which call this test gave C[C@]1(O)C[C@@H](c2nc(-c3ccc4ccc(-c5ccccc5)nc4c3)c3c(N)nccn32)C1 ?
Ans: false (0)

Q: Fill in: this test's call for CC(C)CC(=O)Nc1[nH]nc2c1CN(C(=O)C1CCN(C)CC1)C2(C)C is ___
Ans: false (0)

Q: Name the outcome recorded for Cn1cc(-c2[nH]c3cc(NC(=O)[C@H](N)C4CCCCC4)cc4c3c2C=NNC4=O)cn1 in the assay.
Ans: true (1)

Q: Short answer needed: outcome of this test for O=C(O)c1ccc2c(c1)nc(Nc1cccc(Cl)c1)c1ccncc12 ?
Ans: false (0)

Q: Answer briefly: the call reported for C=CC(=O)Nc1cccc(Nc2nc(Nc3ccc(N4CCN(C(C)=O)CC4)cc3OC)ncc2C(F)(F)F)c1 in this assay.
Ans: false (0)
